Consider the following compounds; for each one, report its Antifungal MIC.
tested on: Aspergillus niger; test: Inhibition of growth of Aspergillus niger in liquid MSY medium (96-well microplate, OD 686 nm); format: cell-based; conditions: MSY broth, four days at 28° C. in the dark, complete inhibition = OD≦0.05, test levels given as ppm
Answers are plain numbers.

Below, 4 compounds whose answers are already recorded.
{"compound": "CCCSC(=NC#N)SCCl", "Antifungal MIC": 0.5}
{"compound": "C=CCSC(=NC#N)SCCl [Cl, —CH2CHC═CH2, allyl chloromethyl cyanodithiocarbimate]", "Antifungal MIC": 1.0}
{"compound": "N#CN=C(SCCl)SCc1ccccc1 [Cl, —CH2C6H5, benzyl chloromethyl cyanodithiocarbimate]", "Antifungal MIC": 1.0}
{"compound": "CCCCCCSC(=NC#N)SCCl [Cl, —(CH2)5CH3, hexyl chloromethyl cyanodithiocarbimate]", "Antifungal MIC": 0.2}

Proceed to the following item.
[Q] For the compound shown here, CC(C)SC(=NC#N)SCCl , give the reported Antifungal MIC.
[A] 0.5
